Ref: ChEMBL document CHEMBL1155275

# TARGET DESC: UniProt:P11168
# Sequence (P11168 whole entry): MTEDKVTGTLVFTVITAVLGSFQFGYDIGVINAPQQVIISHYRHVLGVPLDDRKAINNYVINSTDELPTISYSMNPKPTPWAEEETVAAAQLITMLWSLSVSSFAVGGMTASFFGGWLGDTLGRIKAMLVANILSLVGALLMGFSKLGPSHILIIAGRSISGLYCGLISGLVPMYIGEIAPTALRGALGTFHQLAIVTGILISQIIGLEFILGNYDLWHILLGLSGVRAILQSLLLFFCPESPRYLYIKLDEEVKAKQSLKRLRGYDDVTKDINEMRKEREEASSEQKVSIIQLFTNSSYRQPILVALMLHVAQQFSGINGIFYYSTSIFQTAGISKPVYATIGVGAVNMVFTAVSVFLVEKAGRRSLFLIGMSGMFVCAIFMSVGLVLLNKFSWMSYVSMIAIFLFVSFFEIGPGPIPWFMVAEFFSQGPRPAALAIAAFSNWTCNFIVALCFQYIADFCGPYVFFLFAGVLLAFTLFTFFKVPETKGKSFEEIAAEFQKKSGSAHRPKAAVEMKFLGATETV
# TEST PROTOCOL: Inhibition of GLUT2-mediated [14C]D-glucose uptake in human MCF7 cells by liquid scintillation counting
# Type: cell-based
EXPERIMENTAL READOUT: Ki (µM)

1. OCC1(O)O[C@H](CF)[C@@H](O)[C@@H]1O (stereo partly specified) ... 916
